The reported measurements were obtained from patent US10604514B2.

Documented pEC50 across a set of compounds
# Assay Target: DYRK1A kinase (Homo sapiens (Human))
# Assay Explanation: DYRK1A kinase assay (Ser/Thr 18 peptide Z-lyte, FRET)
# Measurement Setup: DYRK1A kinase; method text calls the value IC50
pEC50: −log10 of the molar value.
Measured Endpoint: pEC50

> print(dat)
                                    compound                          assay.target  measured.endpoint  measurement
 1  Cc1nnc(-c2ccc3cnc(NC(=O)N4CCn5ccnc5C4)cc3c2)s1 [Compound 125]  DYRK1A kinase (Homo sapiens (Human))              pEC50         8.40
 2  Cn1cc(-c2ccc3cnc(NC(=O)[C@H]4CC[C@H](NCCF)CC4)cc3c2)cn1 [Compound 197]  DYRK1A kinase (Homo sapiens (Human))              pEC50         8.52
 3  Cc1nnc(-c2ccc3cnc(NC(=O)N4CC[C@H](N)[C@@H](F)C4)cc3c2)s1 [Compound 33]  DYRK1A kinase (Homo sapiens (Human))              pEC50         8.05
 4  Cc1nnc(-c2cc(F)c3cnc(NC(=O)[C@H]4CC[C@H](N5CCOCC5)CC4)cc3c2)s1 [Compound 57]  DYRK1A kinase (Homo sapiens (Human))              pEC50         8.05
 5  Cc1nnc(-c2ccc3cnc(NC(=O)N4[C@@H]5CC[C@H]4C[C@@H](N)C5)cc3c2)s1 [Compound 193]  DYRK1A kinase (Homo sapiens (Human))              pEC50         7.48
 6  Cc1nc(-c2ccc3cnc(NC(=O)[C@H]4CC[C@H](N5CCN(C)CC5)CC4)cc3c2)co1 [Compound 12]  DYRK1A kinase (Homo sapiens (Human))              pEC50         7.80
 7  Cc1nnc(-c2ccc3cnc(NC(=O)N4CC[C@@H](N)[C@H](F)C4)cc3c2)s1 [Compound 131]  DYRK1A kinase (Homo sapiens (Human))              pEC50         7.89
 8  Cc1ncc(-c2ccc3cnc(NC(=O)N(C)C4CCN(C)CC4)cc3c2)o1 [Compound 231]  DYRK1A kinase (Homo sapiens (Human))              pEC50         7.80
 9  Cc1nnc(-c2ccc3cnc(NC(=O)[C@H]4CC[C@H](N)CC4)cc3c2)s1 [Compound 21]  DYRK1A kinase (Homo sapiens (Human))              pEC50         8.22
10  Cc1nnc(-c2ccc3cnc(NC(=O)N4CCC(N(C)CC(F)F)CC4)cc3c2)s1 [Compound 32]  DYRK1A kinase (Homo sapiens (Human))              pEC50         7.77
11  Cc1nnc(-c2ccc3cnc(NC(=O)N4[C@@H]5CC[C@H]4C[C@H](N)C5)cc3c2)s1 [Compound 151]  DYRK1A kinase (Homo sapiens (Human))              pEC50         8.05
12  COC1CCN(CC(=O)Nc2cc3cc(-c4nnc(C)s4)ccc3cn2)CC1 [Compound 49]  DYRK1A kinase (Homo sapiens (Human))              pEC50         7.68
13  Cc1ncc(-c2cc3cc(NC(=O)[C@H]4CC[C@H](N5CCOCC5)CC4)ncc3cc2F)o1 [Compound 55]  DYRK1A kinase (Homo sapiens (Human))              pEC50         8.22
14  Cn1cnnc1-c1ccc2cnc(NC(=O)CN3CCOCC3)cc2c1 [Compound 14]  DYRK1A kinase (Homo sapiens (Human))              pEC50         7.48
15  Cc1nnc(-c2cc(F)c3cnc(NC(=O)N(C)C4CCN(C)CC4)cc3c2)s1 [Compound 227]  DYRK1A kinase (Homo sapiens (Human))              pEC50         7.62
16  COCCN[C@H]1CC[C@H](C(=O)Nc2cc3cc(-c4cnn(C)c4)cc(F)c3cn2)CC1 [Compound 105]  DYRK1A kinase (Homo sapiens (Human))              pEC50         7.47
